# System: A549
# experiment: Antiproliferative activity against human A549 cells after 72 hrs by XTT assay
# Type: functional, cell-based
# measurement.context: A549, 72 h
pIC50: −log10 of the molar value.
property.label: pIC50

# count of solved cases: 5
>  <compound>
C=C(C)CCC[C@]1(C)C2=C(CC[C@H]1C)C1(C)CCC2[C@@](O)(C2=CC(=O)OC2O)C1 (stereo not given in full)

>  <pIC50>
5.52

$$$$
>  <compound>
C=C(C)CCC[C@]1(C)C2=CCC[C@](C)(C[C@@H](O)C3=CC(=O)OC3O)[C@H]2CC[C@H]1C (stereo not given in full)

>  <pIC50>
5.42

$$$$
>  <compound>
C=C(C)CCC[C@]1(C)C2=CCC[C@](C)(C[C@H](OC(C)=O)C3=CC(=O)OC3O)[C@H]2CC[C@H]1C (stereo not given in full)

>  <pIC50>
5.35

$$$$
>  <compound>
CC(C)=CCC[C@]1(C)C2=CCC[C@](C)(CC(=O)c3ccoc3)[C@H]2CC[C@H]1C

>  <pIC50>
4.04

$$$$
>  <compound>
C=C(C)CCC[C@]1(C)C2=CCC[C@](C)(C[C@@H](O)c3ccoc3)[C@H]2CC[C@H]1C

>  <pIC50>
4.18

$$$$

(A) C=C(C)CC[C@]1(C)C2=CCC[C@](C)(C[C@@H](O)C3=CC(=O)OC3O)[C@H]2CC[C@H]1C (stereo not given in full)
(B) C=C(C)CC[C@]1(C)C2=CCC[C@](C)(C[C@@H](OC(C)=O)C3=CC(=O)OC3O)[C@H]2CC[C@H]1C (stereo not given in full)
Query: Could you check which of A and B has a smaller value for pIC50? Label of pick, please.
Reply: B
(B: 4.95, A: 5.36)

(I) C=C(C)CCC[C@]1(C)C2=CCC[C@](C)(C[C@@H](OC(C)=O)C3=CC(=O)OC3O)[C@H]2CC[C@H]1C (stereo not given in full)
(II) COC/C=C(\C)CC[C@]1(C)C2=C(CC[C@H]1C)C1(C)CCC2[C@@](O)(C2=CC(=O)OC2O)C1 (stereo not given in full)
Query: Could you check which of I and II has a smaller value for pIC50? Label of pick, please.
Reply: II
